- Test system: HepG2-CANX-COX4
- assay-comment: phenotypically active (imaging signature differs from DMSO and reproducible) at any of 0.3-9 uM (binary (1 = active, 0 = inactive)); higher = active
- experimental-setup: treatment time: 24 h
Where a name gives a salt, the structure may show the parent alone.
reported-endpoint: phenotypically active

INPUT: Consider the molecule shown here: COc1ccc(C(=O)C2CCN(CC(=O)N(Cc3nc4c(c(=O)[nH]3)COCC4)CC3CC3)CC2)cc1 What is its recorded phenotypically active?
OUTPUT: 0 (inactive)

INPUT: Consider the molecule shown here: Cc1cccc(CCN2CCC(C(=O)c3ccc(NS(C)(=O)=O)cc3)CC2)n1 What is its recorded phenotypically active?
OUTPUT: 0 (inactive)

INPUT: Consider the molecule shown here: Cc1ccc(NC2=CC(=O)c3sc(C)nc3C2=O)cc1 [Ryuvidine] What is its recorded phenotypically active?
OUTPUT: 0 (inactive)

INPUT: Consider the molecule shown here: CCCCCCCCCCCCCCCC(=O)C(F)(F)F What is its recorded phenotypically active?
OUTPUT: 0 (inactive)

INPUT: Consider the molecule shown here: Cc1cc(F)c(Nc2ncnc3cc(OCc4ccccc4)ccc23)cc1O What is its recorded phenotypically active?
OUTPUT: 0 (inactive)

INPUT: Consider the molecule shown here: COC(=O)C1CC23C=CCN4CCC5(c6ccccc6NC15[C@H]2C)C43 (some centres undefined) [Vindolinine dichlorhydrate] What is its recorded phenotypically active?
OUTPUT: 0 (inactive)

INPUT: Consider the molecule shown here: CCc1cc2c(=O)c(-c3nc4ccccc4s3)coc2c(CN2CCCCC2)c1O What is its recorded phenotypically active?
OUTPUT: 0 (inactive)

INPUT: Consider the molecule shown here: Cc1ccc(-c2csc3ncnc(SCCC(=O)O)c23)cc1 What is its recorded phenotypically active?
OUTPUT: 0 (inactive)

INPUT: Consider the molecule shown here: CN(C)CC/C=C1\c2ccccc2COc2ccc(CC(=O)O)cc21 [olopatadine] What is its recorded phenotypically active?
OUTPUT: 0 (inactive)

INPUT: Consider the molecule shown here: Nc1ncn([C@@H]2O[C@H](CO)[C@@H](O)[C@H]2O)c(=O)n1 [5-Azacytidine] What is its recorded phenotypically active?
OUTPUT: 1 (active)

INPUT: Consider the molecule shown here: COc1ccc(CCNCc2ccc(OCc3ccc(Cl)nc3)c(OC)c2)cc1OC [SBE 13 hydrochloride] What is its recorded phenotypically active?
OUTPUT: 0 (inactive)

INPUT: Consider the molecule shown here: Nc1cccc(-c2cc3c(Oc4cccc(O)c4)ncnc3[nH]2)c1 What is its recorded phenotypically active?
OUTPUT: 1 (active)

INPUT: Consider the molecule shown here: O=c1[nH]cnc2[nH]ncc12 [Allopurinol] What is its recorded phenotypically active?
OUTPUT: 0 (inactive)

INPUT: Consider the molecule shown here: COCC(=O)O[C@]1(CCN(C)CCCc2nc3ccccc3[nH]2)CCc2cc(F)ccc2[C@@H]1C(C)C [mibefradil] What is its recorded phenotypically active?
OUTPUT: 1 (active)

INPUT: Consider the molecule shown here: CC(=O)Nc1nnc(S(N)(=O)=O)s1 [acetazolamide] What is its recorded phenotypically active?
OUTPUT: 0 (inactive)

INPUT: Consider the molecule shown here: CC(C)c1ccc(-c2cc(=O)c3ccccc3o2)cc1 What is its recorded phenotypically active?
OUTPUT: 0 (inactive)

INPUT: Consider the molecule shown here: CC1=NN(c2ccc(C(=O)O)cc2)C(=O)/C1=C\c1ccc(-c2cc(C)c(C)cc2[N+](=O)[O-])o1 What is its recorded phenotypically active?
OUTPUT: 0 (inactive)

INPUT: Consider the molecule shown here: C=C(C)[C@@H]1CC[C@]2(CO)CC[C@]3(C)[C@H](CC[C@@H]4[C@@]5(C)CC[C@H](O)C(C)(C)[C@@H]5CC[C@]43C)[C@@H]12 [Betulin] What is its recorded phenotypically active?
OUTPUT: 0 (inactive)

INPUT: Consider the molecule shown here: CCC[C@H](N[C@@H](C)C(=O)N1[C@H](C(=O)O)C[C@@H]2CCCC[C@@H]21)C(=O)OCC [perindopril] What is its recorded phenotypically active?
OUTPUT: 0 (inactive)

These measurements were taken from the supplement of paper PMC7411054.
